These data points were gathered from PubChem BioAssay (EPA / NIEHS).

Target: Transcription factor E2F1 (Homo sapiens) (UniProt Q01094)
Sequence (Q01094 whole entry, looked up): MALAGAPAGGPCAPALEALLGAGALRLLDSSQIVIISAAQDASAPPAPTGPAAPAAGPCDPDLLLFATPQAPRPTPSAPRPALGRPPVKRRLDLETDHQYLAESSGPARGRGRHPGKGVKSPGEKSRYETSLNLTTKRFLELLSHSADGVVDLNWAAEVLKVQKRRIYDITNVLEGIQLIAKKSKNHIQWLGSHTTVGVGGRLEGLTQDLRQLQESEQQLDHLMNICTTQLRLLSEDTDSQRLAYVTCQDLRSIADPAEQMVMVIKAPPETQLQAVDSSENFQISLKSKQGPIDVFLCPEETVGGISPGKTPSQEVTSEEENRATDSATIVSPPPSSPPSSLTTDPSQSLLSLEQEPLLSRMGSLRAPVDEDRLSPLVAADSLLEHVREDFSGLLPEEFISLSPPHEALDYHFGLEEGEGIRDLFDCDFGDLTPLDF
Experiment: ATG_E2F_CIS: Attagene CIS-FACTORIAL HepG2 Assay for human E2F Transcription Factor 1 (AID 2282935)
Conditions: HepG2 Attagene cis-reporter, E2F reporter RNA transcripts; actives raise or lower the signal
The source made the active and inactive calls. The calls were made as follows: active = hit-call score of the fitted dose curve at least 0.9, where 1 is the maximum; inactive = score below 0.9.
Possible outcomes: true (1) = active, false (0) = inactive

| COMPOUND | DISCRETE_LABEL |
| --- | --- |
| Cc1ccc(C(=O)O)o1 | false (0) |
| CC(C)c1ccc(C(C)C)cc1 | false (0) |
| CCC(=O)/C=C/C1C(C)=CCCC1(C)C (stereo not drawn) | false (0) |
| CC1CCC(C(C)(C)O)CC1 (stereo not drawn) | false (0) |
| CCC(C(=O)NC(N)=O)c1ccccc1 (stereo not drawn) | false (0) |
| CC(CCO)CCCC(C)(C)O (stereo not drawn) | false (0) |
| COC(=O)c1ccc(C)cc1 | false (0) |
| C=COCCOCCOCCOC=C | false (0) |
| c1ccc2sc(SN(C3CCCCC3)C3CCCCC3)nc2c1 | false (0) |
| FC1(F)C(F)(F)C(F)(F)C2(F)C(F)(C1(F)F)C(F)(F)C(F)(F)C1(F)C(F)(F)C(F)(F)C(F)(F)C(F)(F)C12F (stereo not drawn) | false (0) |
| CCCc1c(OCCCOc2ccc(OCC(=O)O)cc2)ccc(C(C)=O)c1O | false (0) |
| CC1COc2ccccc2N1C(=O)C(Cl)Cl (stereo not drawn) | false (0) |
| CCCCO | false (0) |
| CCn1c2ccccc2c2cc(N)ccc21 | false (0) |
| Nc1cc([N+](=O)[O-])ccc1Cl | false (0) |
| Cc1ccc(C=O)cc1 | false (0) |
| CCCCNC(=O)NS(=O)(=O)c1ccc(C)cc1 | false (0) |
| C=CC(=O)OCCn1c(=O)n(CCOC(=O)C=C)c(=O)n(CCOC(=O)C=C)c1=O | false (0) |
| CC(C)OP(=O)(CP(=O)(OC(C)C)OC(C)C)OC(C)C | false (0) |
| CC(CCO)CCc1ccccc1 (stereo not drawn) | false (0) |
| CC(=O)Nc1ccc(C)cc1C | false (0) |
| CC1CCC(C(C)CS)CC1S (stereo not drawn) | true (1) |
| CCN(CC)c1ccc2c(-c3ccccc3C(=O)O)c3ccc(=[N+](CC)CC)cc-3oc2c1 | false (0) |
| COc1ccc(Nc2ccccc2)c(C)c1 | false (0) |
| CCc1c(C)cc(N)c(CC)c1N | false (0) |
| CCCCc1ccc(N)cc1 | false (0) |
| NCCOCCO | false (0) |
| CC(C)c1cccc(O)c1 | false (0) |
| COCCCOc1ccnc(CS(=O)c2nc3ccccc3[nH]2)c1C (stereo not drawn) | false (0) |
| COC(=O)Cc1cccc2ccccc12 | false (0) |
| O=[N+]([O-])c1ccc(C=Cc2ccc([N+](=O)[O-])cc2S(=O)(=O)O)c(S(=O)(=O)O)c1 | false (0) |
| NCCCCCCN | false (0) |
| CC(CN1c2ccccc2Sc2ccccc21)N(C)C (stereo not drawn) | true (1) |

====

Biological target: Aryl hydrocarbon receptor (Homo sapiens)
Assay: ATG_Ahr_CIS: Attagene CIS-FACTORIAL HepG2 Assay for human Aryl Hydrocarbon Receptor (Ahr) (AID 2282930)
Conditions: HepG2 AhR cis-factorial reporter transcription; actives raise or lower the signal
Activity calls are given as the source filed them. The calls were made as follows: active = hit-call score of the fitted dose curve at least 0.9, where 1 is the maximum; inactive = score below 0.9.
Labels: active, inactive

| COMPOUND | DISCRETE_LABEL |
| --- | --- |
| CC(C)(C)NC(N)=O | inactive |
| CCCCCCCCCCCCSC | inactive |
| c1ccc2c(c1)c1cccc3ccc4cccc2c4c31 | inactive |
| CCCCCCCCCCN | inactive |
| Nc1ccc(S(=O)(=O)O)c(N)c1 | inactive |
| CC(=O)[O][Al][O]C(C)=O | inactive |
| c1ccc2sc(SN(C3CCCCC3)C3CCCCC3)nc2c1 | active |
| CCCCCCCCCC=O | inactive |
| COc1ccc(NC(=O)CC(C)=O)cc1 | inactive |
| CC(=O)OCC=Cc1ccccc1 | inactive |
| CCC(=O)OCCC(C)CCC=C(C)C (centres undefined) | inactive |
| O=c1[nH]c(=O)n([C@H]2CCCO2)cc1F | inactive |
| COc1cc(C(C)(C)C)c(O)c(C(C)(C)C)c1 | inactive |
| CCCOCC(C)O (centres undefined) | inactive |
